Test system: N2a
Test: Antiamyloidogenic activity in mouse N2A cells transfected with human APP Swedish mutant assessed as amyloid beta (1 to 42) level at 1 uM after 24 hrs by ELISA relative to control
Entries and their level, % of control at 1 µM values follow.

molecule: CCC(CC)(C(=O)O)c1ccc(-c2ccccc2)c(F)c1
level, % of control at 1 µM [%]: 124
//
molecule: CSc1ccc(/C=C2/C=C(CC(=O)O)c3cc(F)ccc32)cc1
level, % of control at 1 µM [%]: 80.8
//
molecule: CCC(C#N)(CC)c1ccc(-c2cccc3ccccc23)c(F)c1
level, % of control at 1 µM [%]: 105
//
molecule: NC(=O)C(F)(F)c1ccc(-c2ccccc2)c(F)c1
level, % of control at 1 µM [%]: 115
//
molecule: CSc1ccc(/C=C2/C(C)=C(CC(=O)O)c3cc(F)ccc32)cc1 [SULINDAC SULFIDE]
level, % of control at 1 µM [%]: 82.6
//
molecule: O=C(O)C(F)c1ccc(-c2ccccc2)c(F)c1 (stereo not drawn)
level, % of control at 1 µM [%]: 91.8
//
molecule: N#CC(F)c1ccc(-c2ccccc2)c(F)c1 (stereo not drawn)
level, % of control at 1 µM [%]: 65.6
//
molecule: O=C(O)C1(c2ccc(-c3ccc(C(F)(F)F)cc3)c(F)c2)CC1
level, % of control at 1 µM [%]: 99.3
//
molecule: O=C(O)C1(c2ccc(-c3ccc(F)cc3)c(F)c2)CC1
level, % of control at 1 µM [%]: 90.4
//
molecule: O=C(O)C1(c2ccc(-c3ccccc3)c(F)c2)CC1
level, % of control at 1 µM [%]: 69.5
//
molecule: NC(=O)C(F)c1ccc(-c2ccccc2)c(F)c1 (stereo not drawn)
level, % of control at 1 µM [%]: 101
//
molecule: N#CC(F)(F)c1ccc(-c2ccc(F)cc2)c(F)c1
level, % of control at 1 µM [%]: 125
//
molecule: O=C(O)CC1=C/C(=C/c2ccc(C(F)(F)F)cc2)c2ccc(F)cc21
level, % of control at 1 µM [%]: 91
//
molecule: CC(F)(C(=O)O)c1ccc(-c2ccccc2)c(F)c1 (stereo not drawn)
level, % of control at 1 µM [%]: 98.8
//
molecule: COc1ccc2c(c1)c(CNCCO)c(C)n2C(=O)c1ccc(Cl)cc1
level, % of control at 1 µM [%]: 118
//
molecule: CC(C(=O)O)c1ccc(-c2ccccc2)c(F)c1 (stereo not drawn)
level, % of control at 1 µM [%]: 86.6
//
molecule: O=C(O)C1(c2ccc(-c3ccc(Cl)c(Cl)c3)c(F)c2)CC1
level, % of control at 1 µM [%]: 125
//
molecule: COc1ccc2c(c1)c(CC(=O)NCCc1cccnc1)c(C)n2C(=O)c1ccc(Cl)cc1
level, % of control at 1 µM [%]: 135
//
molecule: COc1ccc2c(c1)c(CC(=O)O)cn2C(=O)c1ccc(Cl)cc1
level, % of control at 1 µM [%]: 102
//
molecule: CCC(C#N)(CC)c1ccc(-c2ccccc2)c(F)c1
level, % of control at 1 µM [%]: 125
//
molecule: O=C(O)C(O)c1ccc(-c2ccccc2)c(F)c1 (stereo not drawn)
level, % of control at 1 µM [%]: 82.5
//
molecule: CCNC(=O)CC1=C/C(=C/c2ccc(SC)cc2)c2ccc(F)cc21
level, % of control at 1 µM [%]: 95.7
//
molecule: COc1ccc2c(c1)c(CC(=O)Nc1ccc(Cl)cc1)c(C)n2C(=O)c1ccc(Cl)cc1
level, % of control at 1 µM [%]: 295
